Source: patent US20250099431A1

# MEASUREMENT TARGET: GLP-1R (Homo sapiens (Human))
# Sequence (P43220 24-463): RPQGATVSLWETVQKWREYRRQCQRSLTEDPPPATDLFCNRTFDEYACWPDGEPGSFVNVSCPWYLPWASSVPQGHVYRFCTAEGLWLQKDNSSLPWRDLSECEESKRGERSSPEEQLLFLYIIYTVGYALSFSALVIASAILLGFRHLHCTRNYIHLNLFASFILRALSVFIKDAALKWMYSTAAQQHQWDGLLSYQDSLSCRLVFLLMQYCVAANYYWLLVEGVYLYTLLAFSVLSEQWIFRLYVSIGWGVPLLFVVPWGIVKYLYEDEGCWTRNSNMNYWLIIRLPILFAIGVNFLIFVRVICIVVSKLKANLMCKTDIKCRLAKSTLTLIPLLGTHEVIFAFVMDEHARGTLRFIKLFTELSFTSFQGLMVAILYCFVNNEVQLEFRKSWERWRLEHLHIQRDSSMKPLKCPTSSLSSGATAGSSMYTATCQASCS
# TEST SUMMARY: GLP-1R activation: cAMP increase in CHO cells stably expressing GLP-1R
# Assay type: cell-based
# CONDITION DETAILS: cAMP increase, 10 point dose response, 30 minutes incubation at 37° C., read-out: EC50
Overview of reported EC50 across a group of compounds:
MEASURED ATTRIBUTE: EC50 (nM)

> print(dat)
                                   compound  unit.descriptor  endpoint.value
1  COCCn1c(Cc2cc(F)c(-c3cccc4c3OC(c3ccc(C#N)cc3F)O4)cc2F)nc2ccc(C(=O)O)cc21 (single isomer, unassigned) [Example 39]               nM              49
2  COCCn1c(Cc2c(F)cc(-c3cccc4c3OC3(CCCOc5cc(Cl)ccc53)O4)cc2F)nc2ccc(C(=O)O)cc21 (stereo not drawn) [Example 55]               nM            1270
3  COCCn1c(Cc2c(F)cc(-c3cccc4c3OC(C)(c3ccc(Cl)cn3)O4)cc2F)nc2ccc(C(=O)O)cc21 (stereo not drawn) [Example 64]               nM             111

###

# MEASUREMENT TARGET: GLP-1R (Homo sapiens (Human))
# TEST SUMMARY: GLP-1R activation: cAMP increase in CHO cells stably expressing GLP-1R
# Assay type: cell-based
# CONDITION DETAILS: cAMP increase, 10 point dose response, 30 minutes incubation at 37° C., read-out: EC50
pEC50: −log10 of the molar value.
Tick y if pEC50 is 9 or greater. Tick n if pEC50 is less than 9.

MOLECULE	CLASS ASSIGNMENT
CC1(c2ccc(Cl)cc2F)Oc2cccc(-c3cc(F)c(Cc4nc5ccc(C(=O)O)cc5n4Cc4ncco4)c(F)c3)c2O1 (stereo not shown) [Example 69]	n
CC1(c2ccc(Cl)cc2F)Oc2cccc(-c3ccc(Cc4nc5ccc(C(=O)O)cc5n4Cc4ccon4)c(F)c3)c2O1 (stereo not shown) [Example 107]	n
COCCn1c(Cc2c(F)cc(-c3cccc4c3OC(C)(c3ccc(Cl)cc3OC)O4)cc2F)nc2ccc(C(=O)O)cc21 (stereo not shown) [Example 60]	n
COCCn1c(Cc2c(F)cc(-c3cccc4c3OC(c3ccc(C#N)cc3F)O4)cc2F)nc2ccc(C(=O)O)cc21 (stereo not shown) [Example 5]	n
COCCn1c(Cc2c(F)cc(-c3cccc4c3OC(C)(c3ccc(C#N)cc3F)O4)cc2F)nc2ccc(C(=O)O)cc21 (stereo not shown) [Example 89]	n
COCCn1c(Cc2c(F)cc(-c3cccc4c3OC(C)(c3ccc(C#N)cc3F)O4)c(F)c2F)nc2ccc(C(=O)O)cc21 (single isomer, unassigned) [Example 97]	n
CC1(c2ccc(C#N)cc2F)Oc2cccc(-c3cc(F)c(Cc4nc5ccc(C(=O)O)cc5n4C[C@@H]4CCO4)c(F)c3)c2O1 (single isomer, unassigned) [Example 93]	y
COCCn1c(Cc2ccc(-c3cccc4c3OC(C)(c3ccc(Cl)cc3F)O4)n(C)c2=O)nc2ccc(C(=O)O)cc21 (stereo not shown) [Example 87]	n
COCCn1c(Cc2c(F)cc(-c3cccc4c3OC(C)(c3ccc(C#N)s3)O4)cc2F)nc2ccc(C(=O)O)cc21 (stereo not shown) [Example 11]	n
CC1(c2ccc(Cl)cc2F)Oc2cccc(-c3cc(F)c(Cc4nc5c(F)cc(C(=O)O)cc5n4CC4(CC#N)CC4)c(F)c3)c2O1 (stereo not shown) [Example 13]	y
COCCn1c(Cc2ccc(-c3cccc4c3OC(c3ccccc3)O4)cc2F)nc2ccc(C(=O)O)cc21 (single isomer, unassigned) [Example 36]	n
CC1(c2ccc(C#N)cc2F)Oc2cccc(-c3cc(F)c(Cc4nc5ccc(C(=O)O)cc5n4C[C@@H]4CCO4)c(F)c3F)c2O1 (single isomer, unassigned) [Example 95]	n
